# measured_on: UniProtKB Q13133
# Sequence (Q13133 whole entry, the tested form may be a part): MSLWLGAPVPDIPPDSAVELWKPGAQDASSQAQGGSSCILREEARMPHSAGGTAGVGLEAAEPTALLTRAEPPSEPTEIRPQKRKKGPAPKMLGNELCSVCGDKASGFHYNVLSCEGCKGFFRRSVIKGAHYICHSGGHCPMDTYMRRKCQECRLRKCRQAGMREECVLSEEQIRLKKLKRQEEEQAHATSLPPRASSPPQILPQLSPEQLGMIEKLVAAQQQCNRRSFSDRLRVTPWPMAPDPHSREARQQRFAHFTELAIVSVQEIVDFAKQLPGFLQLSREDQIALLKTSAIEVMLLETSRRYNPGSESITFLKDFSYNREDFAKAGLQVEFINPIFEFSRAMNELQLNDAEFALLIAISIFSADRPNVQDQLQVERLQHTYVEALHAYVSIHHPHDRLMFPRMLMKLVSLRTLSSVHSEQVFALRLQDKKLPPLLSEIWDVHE
# assay_remarks: Agonist activity at recombinant GST-tagged human LXRalpha LBD assessed as fluorescein-labeled coactivator peptide recruitment preincubated with enzyme followed by coactivator addition by LanthaScreen TR-FRET assay
pEC50: −log10 of the molar value.
readout_type: pEC50

Looking up CN1CC[C@@H](N2C(=O)S/C(=C\c3ccc4c(cnn4Cc4ccc(Cl)cc4C(F)(F)F)c3)C2=O)[C@H](F)C1 , I found its pEC50 recorded as < 5.00

###

# assay_remarks: Cmax in Sprague-Dawley rat at 10 mg/kg administered via oral gavage by LC-MS analysis
# Format: ADME, organism-based
# Design: dose 10 mg/kg, route oral
# run_parameters: in vivo
readout_type: Cmax
Answer by giving the amount and then stating its unit.

Looking up CN1CC[C@@H](N2C(=O)S/C(=C\c3ccc4c(cnn4Cc4ccc(Cl)cc4C(F)(F)F)c3)C2=O)[C@H](F)C1 , I found its Cmax recorded as 683 ng/mL

###

# assay_remarks: Half life in Sprague-Dawley rat at 2 mg/kg, iv by LC-MS analysis
# Type: ADME, organism-based
# run_parameters: in vivo
readout_type: half-life

Looking up CN1CC[C@@H](N2C(=O)S/C(=C\c3ccc4c(cnn4Cc4ccc(Cl)cc4C(F)(F)F)c3)C2=O)[C@H](F)C1 , I found its half-life recorded as 6 h

###

# measured_on: Estrogen receptor (Homo sapiens, UniProt P03372)
# Sequence (P03372 whole entry): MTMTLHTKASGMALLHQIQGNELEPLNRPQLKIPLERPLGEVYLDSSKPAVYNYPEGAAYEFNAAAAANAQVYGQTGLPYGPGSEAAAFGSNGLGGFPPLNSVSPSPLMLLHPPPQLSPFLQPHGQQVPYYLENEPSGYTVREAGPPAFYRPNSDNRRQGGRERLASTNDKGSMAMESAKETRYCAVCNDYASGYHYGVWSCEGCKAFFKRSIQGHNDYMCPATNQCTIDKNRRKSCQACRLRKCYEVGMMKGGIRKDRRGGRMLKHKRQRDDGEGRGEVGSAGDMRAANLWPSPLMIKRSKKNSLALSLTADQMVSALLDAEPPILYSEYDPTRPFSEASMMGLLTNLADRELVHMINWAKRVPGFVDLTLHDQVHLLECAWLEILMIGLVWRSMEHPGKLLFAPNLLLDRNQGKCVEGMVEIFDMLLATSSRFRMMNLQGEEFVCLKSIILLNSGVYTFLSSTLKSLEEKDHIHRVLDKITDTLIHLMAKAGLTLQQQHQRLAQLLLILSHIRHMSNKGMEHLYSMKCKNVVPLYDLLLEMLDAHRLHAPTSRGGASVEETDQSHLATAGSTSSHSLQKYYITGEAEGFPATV
# assay_remarks: Inhibition of fluormone ES2 green binding to recombinant full length human ERalpha expressed in insect cells by fluorescence polarization assay
pIC50: −log10 of the molar value.
readout_type: pIC50

Fill in: Estrogen receptor (Homo sapiens, UniProt P03372) pIC50 for CN1CC[C@@H](N2C(=O)S/C(=C\c3ccc4c(cnn4Cc4ccc(Cl)cc4C(F)(F)F)c3)C2=O)[C@H](F)C1 = < 5.00

###

# assay_remarks: Terminal half life in Sprague-Dawley rat at 10 mg/kg administered via oral gavage by LC-MS analysis
# Type: ADME, organism-based
# run_parameters: in vivo, read-out: beta t1/2 (converted)
readout_type: half-life
Answer by giving the amount and then stating its unit.

Looking up CN1CC[C@@H](N2C(=O)S/C(=C\c3ccc4c(cnn4Cc4ccc(Cl)cc4C(F)(F)F)c3)C2=O)[C@H](F)C1 , I found its half-life recorded as 4.7 h
